Just for reference, patent US20240270821A1 is where these values come from.

- test system: hGIPR (Homo sapiens, UniProt P48546)
- Sequence (P48546 22-466): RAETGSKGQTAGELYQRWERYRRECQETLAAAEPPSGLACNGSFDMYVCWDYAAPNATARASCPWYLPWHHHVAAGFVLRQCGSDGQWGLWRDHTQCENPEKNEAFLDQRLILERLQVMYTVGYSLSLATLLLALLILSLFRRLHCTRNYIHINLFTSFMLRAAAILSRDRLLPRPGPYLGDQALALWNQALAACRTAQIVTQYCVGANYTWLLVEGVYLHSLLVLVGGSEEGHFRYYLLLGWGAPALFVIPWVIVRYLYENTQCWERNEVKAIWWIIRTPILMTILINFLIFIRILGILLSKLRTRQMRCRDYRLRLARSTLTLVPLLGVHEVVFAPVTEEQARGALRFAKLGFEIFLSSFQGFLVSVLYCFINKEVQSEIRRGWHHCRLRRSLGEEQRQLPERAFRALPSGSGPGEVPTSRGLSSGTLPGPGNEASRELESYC
- test protocol: Functional cAMP activity in the presence of 1% HSA
- Assay type: cell-based
- run parameters: read-out: cAMP Rel EC50, hGIPR
Starred links: 1 amine or outer side, 2 acyl side, 3 side chain; linkers in the order of their positions; H or OH if unused. Non-standard residues stand in square brackets, D forms with d. Groups on a side chain read outwards from the residue. No end group written: not given here. *: point of attachment. C20 diacid = O=C(O)CCCCCCCCCCCCCCCCCCC(=O)*; C18 diacid = O=C(O)CCCCCCCCCCCCCCCCC(=O)*; αMePhe(2-F) = C[C@](N)(Cc1ccccc1F)C(=O)O; γGlu = O=C(O)[C@H](CCC(=O)[*:2])N[*:1]; αMe4Pal = C[C@](N)(Cc1ccncc1)C(=O)O; αMeY = C[C@](N)(Cc1ccc(O)cc1)C(=O)O; 4Pal = N[C@@H](Cc1ccncc1)C(=O)O; αMeL = CC(C)C[C@](C)(N)C(=O)O; αMeS = C[C@](N)(CO)C(=O)O; Orn = NCCC[C@H](N)C(=O)O; AEEA = NCCOCCOCC(=O)O; Aib = CC(C)(N)C(=O)O
measurement label: log10 EC50 (log10 of the value in nM)

substance	test system	assay value
H-Y[Aib]QGTFTSD[4Pal]S[Orn][αMeL]LD[Orn]K([γGlu-γGlu-C18 diacid])AQ[αMe4Pal]AFIEYLIAGGPSSGEPPPSGE-NH2 [Example 983]	hGIPR (Homo sapiens, UniProt P48546)	1.29
H-Y[Aib]QGT[αMePhe(2-F)]TSD[4Pal][αMeS]I[αMeL]LD[Orn]K([AEEA-γGlu-C18 diacid])AQ[αMe4Pal]EFI[dE][αMeY]LIEGGPPS[Aib]EPPPSGGGE-NH2 [Example 1201]	hGIPR (Homo sapiens, UniProt P48546)	0.01
H-Y[Aib]QGTFTSDFS[Orn][αMeL]LDKK([AEEA-γGlu-C20 diacid])AQ[Aib]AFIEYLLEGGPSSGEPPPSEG-NH2 [Example 59]	hGIPR (Homo sapiens, UniProt P48546)	2.22
H-Y[Aib]QGTFTSDYSK[αMeL]LDKK([AEEA-γGlu-C20 diacid])AQQAFIQWLIEGGPSSGEPPPSEG-NH2 [Example 314]	hGIPR (Homo sapiens, UniProt P48546)	1.82
H-Y[Aib]QGTFTSD[4Pal]SK[αMeL]LDKK([AEEA-γGlu-C18 diacid])AQ[Aib]AFIEYLIE[dA]GESSGEPPPSGS-NH2 [Example 284]	hGIPR (Homo sapiens, UniProt P48546)	1.78
H-Y[Aib]QGTFTSD[4Pal]SQ[αMeL]LDKK([AEEA-γGlu-C18 diacid])AQ[αMe4Pal]AFIE[αMe4Pal]LIEGGPSSGAPPPSGSEE-NH2 [Example 954]	hGIPR (Homo sapiens, UniProt P48546)	1.55
H-Y[Aib]QGTFTSDFS[Orn][αMeL]LDKK([AEEA-γGlu-C20 diacid])AQ[Aib]AFIEYLLAGGPSSGAPPPSEG-NH2 [Example 60]	hGIPR (Homo sapiens, UniProt P48546)	1.52
Y[Aib]QGTFTSD[4Pal]SQ[αMeL]LD[Orn]K([γGlu-γGlu-C18 diacid])AQ[αMe4Pal]QFIE[αMeY]LIEGGPSSGEPPPSGSEE-NH2 [Example 1026]	hGIPR (Homo sapiens, UniProt P48546)	1.79
Y[Aib]QGT[αMePhe(2-F)]TSD[4Pal]SI[αMeL]LD[Orn]K([AEEA-γGlu-C18 diacid])AQ[αMe4Pal][Orn]FI[dE][αMeY]LIEGGPSSGEPPPEGTE-NH2 [Example 679]	hGIPR (Homo sapiens, UniProt P48546)	0.01
H-Y[Aib]QGTFTSDFS[Orn][αMeL]LDKK([AEEA-γGlu-C18 diacid])AQ[Aib]AFIEYLLEGGPSSGAPPPGGQ-NH2 [Example 159]	hGIPR (Homo sapiens, UniProt P48546)	1.70
Y[Aib]QGTFTSD[4Pal]SQ[αMeL]LD[Orn]K([dE-γGlu-C18 diacid])AQ[αMe4Pal]QFIE[αMeY]LIAGGPSSGAPPPSGSEEE-NH2 [Example 1081]	hGIPR (Homo sapiens, UniProt P48546)	0.93
H-Y[Aib]QGTFTSD[4Pal]SQ[αMeL]LDKK([γGlu-γGlu-C18 diacid])AQ[αMe4Pal]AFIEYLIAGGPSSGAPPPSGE-NH2 [Example 883]	hGIPR (Homo sapiens, UniProt P48546)	0.97
Y[Aib]QGTFTSD[4Pal]SR[αMeL]LDKK([AEEA-γGlu-C18 diacid])AQ[αMe4Pal]AFIEYLIEGGESSGAPPPSGS-NH2 [Example 792]	hGIPR (Homo sapiens, UniProt P48546)	2.03
H-Y[Aib]QGTFTSD[4Pal]SQ[αMeL]LDKK([AEEA-γGlu-C18 diacid])AQ[αMe4Pal]AFIEWLIEGGPSSGAPPPSGT-NH2 [Example 831]	hGIPR (Homo sapiens, UniProt P48546)	1.58
H-Y[Aib]QGTFTSDFS[Orn][αMeL]LDKK([AEEA-γGlu-C18 diacid])AQ[Aib]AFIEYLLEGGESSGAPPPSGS-NH2 [Example 145]	hGIPR (Homo sapiens, UniProt P48546)	2.03
H-Y[Aib]QGT[αMePhe(2-F)]TSD[4Pal]SILLDKK([γGlu-γGlu-C18 diacid])AQ[Aib]AFIEYLEEGGPSSGAPPPSGTE-NH2 [Example 509]	hGIPR (Homo sapiens, UniProt P48546)	0.70
H-Y[Aib]QGTFTSD[4Pal][αMeS]Q[αMeL]LD[Orn]K([dE-γGlu-C18 diacid])AQ[αMe4Pal]QFIQ[αMeY]LIAGGPSSGEPPPSGGGE-NH2 [Example 1133]	hGIPR (Homo sapiens, UniProt P48546)	0.63
Y[Aib]Q[dA]T[αMePhe(2-F)]TSD[4Pal]SI[αMeL]LD[Orn]K([AEEA-γGlu-C18 diacid])AQ[αMe4Pal][Orn]FI[dE][αMeY]LIEGGPSSGEPPPESE-NH2 [Example 765]	hGIPR (Homo sapiens, UniProt P48546)	1.65
Y[Aib]QGTFTSDFS[Orn][αMeL]LDKK([AEEA-γGlu-C18 diacid])AQ[Aib]AFIEYLLE[dA]GPSSGEPPPSGE-NH2 [Example 135]	hGIPR (Homo sapiens, UniProt P48546)	1.37
H-H[Aib]QGT[αMePhe(2-F)]TSDYSILLDKK([AEEA-γGlu-C20 diacid])AA[Aib]AFIEYLIETGPSSGEPPPSEG-NH2 [Example 290]	hGIPR (Homo sapiens, UniProt P48546)	1.73
H-Y[Aib]QGTFTSDFSK[αMeL]LDKK([AEEA-γGlu-C18 diacid])AQ[Aib]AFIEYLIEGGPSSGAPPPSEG-NH2 [Example 49]	hGIPR (Homo sapiens, UniProt P48546)	1.65
H-Y[Aib]QGTFTSD[4Pal]S[Orn][αMeL]LD[Orn]K([γGlu-γGlu-C18 diacid])AQ[αMe4Pal]AFIE[αMeY]LIEGGPSSGAPPPSGS-NH2 [Example 1013]	hGIPR (Homo sapiens, UniProt P48546)	1.35
